Data origin: ChEMBL document CHEMBL4028824

Assay: Selectivity ratio of IC50 for human MRC5 cells to GI50 for human MDA-MB-231 cells
Quick reference: Selectivity ratio of the listed items.
Answer with a bare number; do not write a unit.

// below: answered compounds
COc1ccc(NC(=S)N/N=C/c2cc3c(cc2O)OCC(c2ccc(O)cc2)=C3)cc1 ... 1.8
C=CCNC(=S)N/N=C/c1cc2c(cc1O)OCC(c1ccc(O)cc1)=C2 ... 7.1
Oc1ccc(C2=Cc3cc(/C=N/NC(=S)Nc4ccc(Cl)cc4)c(O)cc3OC2)cc1 ... 1.5
Oc1ccc(C2=Cc3ccc(O)cc3OC2)cc1 [IDRONOXIL] ... 3.5
Cc1ccc(NC(=S)N/N=C/c2cc3c(cc2O)OCC(c2ccc(O)cc2)=C3)cc1 ... 2.9

Query: What does the record list as Selectivity ratio for Oc1ccc(C2=Cc3cc(/C=N/NC(=S)Nc4ccccc4)c(O)cc3OC2)cc1 ?
Result: 5.1
